All figures here come from PubChem BioAssay AID192.

System: BDF1 mice, B16 melanoma ip, median survival T/C
Experiment: NCI In Vivo Anticancer Drug Screen. Data for tumor model B16 Melanoma (intraperitoneal) in B6D2F1 (BDF1) mice
Conditions: endpoint: median survival time; dose: 200.0 mg/kg/injection; schedule: Q01DX009 (ip); vehicle: Klucel (hydroxypropylcellulose) (HPC); higher = longer survival
Method: The antitumor activity of compounds was measured in mice bearing transplantable tumors. Survival or tumor size were measured and the results are expressed as the measurement made in the treated group (T) divided by the measurement made in the vehicle treated control group (C). The tumor model used in this assay is B16 Melanoma (intraperitoneal) in B6D2F1 (BDF1) mice
Toxic doses and inconclusive results are not listed.
Below: a set of entries, each annotated with reported T/C.

Use the examples below as a reference point.
{"molecule": "ClC1OC(Cl)(Cl)C(Cl)(Cl)OC1(Cl)Cl (stereo unspecified)", "metric": "T/C", "assay value": "93 % of control"}
{"molecule": "O=C(Cl)c1ccccc1S(=O)(=O)N(CCOc1ccccc1)c1ccccc1", "metric": "T/C", "assay value": "96 % of control"}
{"molecule": "COc1ccc(NCc2ccc(C)cc2)cc1", "metric": "T/C", "assay value": "94 % of control"}
{"molecule": "Cc1ccc(C)c(NC(=O)c2ccccc2Cl)c1", "metric": "T/C", "assay value": "93 % of control"}
{"molecule": "Cc1ccccc1-n1c(C)nc2ccccc2c1=O", "metric": "T/C", "assay value": "90 % of control"}

Asked: Look at this molecule and give its reported T/C. Nc1ccc(OC(F)(F)C(F)Cl)cc1 (stereo unspecified)
Given back: 96 % of control

Asked: How about "CC(=O)O[C@]1(C(C)=O)CC[C@H]2[C@@H]3C[C@H](C)C4=CC(=O)CC[C@]4(C)[C@H]3CC[C@@]21C" ?
Given back: 89 % of control

Asked: How about CC(CC=O)CCCC(C)(C)O (stereo unspecified) ?
Given back: 97 % of control

Asked: How about "CCCCCCCCCCCCCCOC(=O)Cl" ?
Given back: 96 % of control

Asked: How about "COc1ccc(NC(=O)Oc2c(C(C)C)cccc2C(C)C)cc1" ?
Given back: 96 % of control

Asked: How about "Cc1ccc(CS)cc1" ?
Given back: 118 % of control
